# credit: patent US20240360154A1

Listing: pIC50 of selected molecules
- target-or-system: p-BTK (WT) (Homo sapiens (Human), UniProt Q06187)
- Sequence (Q06187 whole entry): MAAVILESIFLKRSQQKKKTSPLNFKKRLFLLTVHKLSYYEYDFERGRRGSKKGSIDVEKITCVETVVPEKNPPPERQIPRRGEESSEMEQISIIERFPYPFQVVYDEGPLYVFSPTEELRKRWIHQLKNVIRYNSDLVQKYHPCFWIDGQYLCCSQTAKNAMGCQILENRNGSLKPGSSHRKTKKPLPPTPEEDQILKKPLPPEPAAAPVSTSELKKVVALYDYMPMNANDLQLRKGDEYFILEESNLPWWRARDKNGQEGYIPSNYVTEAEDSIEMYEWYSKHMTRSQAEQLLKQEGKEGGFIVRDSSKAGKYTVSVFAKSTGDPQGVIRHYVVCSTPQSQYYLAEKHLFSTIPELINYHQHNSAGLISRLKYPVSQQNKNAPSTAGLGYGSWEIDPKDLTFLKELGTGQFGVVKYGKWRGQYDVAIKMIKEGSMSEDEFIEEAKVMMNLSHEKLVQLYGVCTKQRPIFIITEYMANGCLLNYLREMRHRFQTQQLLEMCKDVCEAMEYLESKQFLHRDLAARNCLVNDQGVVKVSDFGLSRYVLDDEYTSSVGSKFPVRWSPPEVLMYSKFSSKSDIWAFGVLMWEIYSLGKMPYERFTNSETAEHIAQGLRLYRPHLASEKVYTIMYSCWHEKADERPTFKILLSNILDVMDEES
- assay-notes: p-BTK cell experiment, HEK293 transfected with WT-BTK plasmid (P-BTK Y223 sandwich ELISA)
- protocol-conditions: HEK293 cells, compound cultured for two hours
- Source text: Day 1: HEK293 cells (ADDEXBIO, T0011001) at logarithmic growth phase were taken, digested with enzyme EDTA, collected and counted, and 2E6 cells were inoculated in a 10 cm culture dish and cultured overnight. […] Day 3: The culture dish was taken out, and the cells were digested with enzyme EDTA, collected and counted, and 1E4 cells were inoculated in a 96-well cell culture plate and cultured overnight. […]
pIC50 here is simply -log10 of the concentration when that concentration is written in mol/L.

# count of solved cases: 10
CC(=O)N1CCC2(C1)Nc1c(cnc3[nH]cc(C(=O)c4ccc(Oc5ccccc5)cc4Cl)c13)NC2=O (stereo not shown) [Z4]; 6.43
CC1(C)Nc2c(cnc3[nH]cc(C(=O)c4ccccc4Cl)c23)NC1=O [Z120]; 8.60
O=C(c1ccc(Oc2ccccc2)cc1Cl)c1c[nH]c2ncc3c(c12)N[C@@]1(CC[C@H](O)C1)C(=O)N3 (single isomer, unassigned) [Z24-d]; 7.77
O=C(c1ccc(Oc2ccccc2)cc1Cl)c1c[nH]c2ncc3c(c12)N[C@@]1(CC[C@@H](O)C1)C(=O)N3 (single isomer, unassigned) [Z24-a]; 7.33
COC[C@]1(C)Nc2c(cnc3[nH]cc(C(=O)c4ccc(Oc5ccccc5)cc4Cl)c23)NC1=O [Z13-1]; 7.44
COC1CCC2(C1)Nc1c(cnc3[nH]cc(C(=O)c4ccc(Oc5ccccc5)cc4Cl)c13)NC2=O (single isomer, unassigned) [Z25-2]; 7.82
O=C(c1ccc(Oc2ccccc2)cc1Cl)c1c[nH]c2ncc3c(c12)NC1(CCC(N2CCOCC2)C1)C(=O)N3 (stereo not shown) [Z141]; 7.69
O=C(c1ccc(Oc2ccccc2)cc1Cl)c1c[nH]c2ncc3c(c12)N[C@@]1(CCCOC1)C(=O)N3 (single isomer, unassigned) [Z16-2]; 7.98
COCC1(C)Nc2c(cnc3[nH]cc(C(=O)c4ccc(Oc5cc(C)ccn5)cc4Cl)c23)NC1=O (single isomer, unassigned) [Z64-1]; 7.23
COC[C@]1(C)Nc2c(cnc3[nH]cc(C(=O)c4ccc(Oc5nccc(C)c5F)cc4Cl)c23)NC1=O [Z132]; 7.78

*Q* Given the molecule O=C(c1ccccc1Cl)c1c[nH]c2ncc3c(c12)NC1(CCOCC1)C(=O)N3 [Z197] , what is its reported pIC50?
*A* 8.28

*Q* Given the molecule [2H]C([2H])([2H])OC[C@]1(C([2H])([2H])[2H])Nc2c(cnc3[nH]cc(C(=O)c4ccc(Oc5ccccc5)cc4Cl)c23)NC1=O [Z161] , what is its reported pIC50?
*A* 7.77

*Q* Given the molecule CN1CCC2(C1)Nc1c(cnc3[nH]cc(C(=O)c4ccc(Oc5ccccc5)cc4F)c13)NC2=O (stereo not shown) [Z5] , what is its reported pIC50?
*A* 7.45

*Q* Given the molecule CCOC[C@]1(C)Nc2c(cnc3[nH]cc(C(=O)c4ccc(Oc5ccccc5)cc4Cl)c23)NC1=O (single isomer, unassigned) [Z67-1] , what is its reported pIC50?
*A* 7.43

*Q* Given the molecule COC[C@]1(C)Nc2c(cnc3[nH]cc(C(=O)c4ccc(F)c(F)c4Cl)c23)NC1=O [Z195] , what is its reported pIC50?
*A* 8.55

*Q* Given the molecule COC[C@]1(C)Nc2c(cnc3[nH]cc(C(=O)c4ccc(Oc5c(F)cccc5OC)cc4Cl)c23)NC1=O [Z168] , what is its reported pIC50?
*A* 8.40

*Q* Given the molecule [2H]C([2H])([2H])[C@@]1(COC)Nc2c(cnc3[nH]cc(C(=O)c4ccc(Oc5ccccc5)cc4Cl)c23)NC1=O [Z149] , what is its reported pIC50?
*A* 7.71

*Q* Given the molecule O=C(c1ccc(Oc2ccccc2)cc1Cl)c1c[nH]c2ncc3c(c12)N[C@]1(CCCOC1)C(=O)N3 (single isomer, unassigned) [Z16-1] , what is its reported pIC50?
*A* 7.76

*Q* Given the molecule CC(=O)N1CC[C@]2(C1)Nc1c(cnc3[nH]cc(C(=O)c4ccc(Oc5ccccc5)cc4Cl)c13)NC2=O (single isomer, unassigned) [Z4-1] , what is its reported pIC50?
*A* 7.15

----------
Listing: IC50 of selected compounds
- target-or-system: BTK (C481S) (Homo sapiens (Human), UniProt Q06187, C481S)
- Sequence (Q06187 whole entry C481S): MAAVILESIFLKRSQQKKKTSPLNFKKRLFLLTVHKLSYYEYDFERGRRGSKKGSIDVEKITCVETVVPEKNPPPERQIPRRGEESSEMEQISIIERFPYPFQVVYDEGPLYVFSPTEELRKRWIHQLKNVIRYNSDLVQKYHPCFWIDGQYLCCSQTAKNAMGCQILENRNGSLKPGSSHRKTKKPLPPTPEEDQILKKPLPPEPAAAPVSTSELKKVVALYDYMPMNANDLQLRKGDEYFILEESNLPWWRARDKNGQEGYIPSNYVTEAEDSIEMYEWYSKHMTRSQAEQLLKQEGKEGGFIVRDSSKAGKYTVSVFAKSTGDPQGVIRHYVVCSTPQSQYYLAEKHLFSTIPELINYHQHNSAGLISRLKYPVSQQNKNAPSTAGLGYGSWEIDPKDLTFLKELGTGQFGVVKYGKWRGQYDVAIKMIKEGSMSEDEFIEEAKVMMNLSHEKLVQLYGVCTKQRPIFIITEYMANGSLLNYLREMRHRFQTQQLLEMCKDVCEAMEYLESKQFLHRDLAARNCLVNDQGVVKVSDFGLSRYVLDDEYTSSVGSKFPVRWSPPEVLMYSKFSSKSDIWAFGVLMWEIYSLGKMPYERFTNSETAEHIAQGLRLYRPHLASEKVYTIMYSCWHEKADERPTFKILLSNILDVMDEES
- assay-notes: BTK C481S enzyme experiment (ADP-Glo kinase assay)
- protocol-conditions: 10 nM BTK C481S, ATP 125 μM, Poly(Glu4, Tyr1), 90 minutes at 20° C.
Hi! Could you send only the number? It should be in nM, unit omitted.

COC[C@]1(C)Nc2c(cnc3[nH]cc(C(=O)c4ccc(Oc5cccc(OC)c5)cc4Cl)c23)NC1=O [Z166]; 59.4
[2H]C([2H])([2H])OC[C@]1(C)Nc2c(cnc3[nH]cc(C(=O)c4ccc(Oc5cccc(F)c5)cc4Cl)c23)NC1=O [Z162]; 36
[2H]C([2H])([2H])Oc1c(F)cccc1Oc1ccc(C(=O)c2c[nH]c3ncc4c(c23)N[C@@](C)(COC)C(=O)N4)c(Cl)c1 [Z178]; 42.3

Now examine the next entry.
*Q* Given the compound COCC1(C)Nc2c(cnc3[nH]cc(C(=O)c4ccc(Oc5cc(C)ccn5)cc4Cl)c23)NC1=O (single isomer, unassigned) [Z64-2] , what is its reported IC50?
*A* 17.2

----------
Listing: pIC50 of selected molecules
- target-or-system: BTK (C481S) (Homo sapiens (Human), UniProt Q06187, C481S)
- assay-notes: BTK C481S enzyme experiment (ADP-Glo kinase assay)
- protocol-conditions: 10 nM BTK C481S, ATP 125 μM, Poly(Glu4, Tyr1), 90 minutes at 20° C.
pIC50 here is simply -log10 of the concentration when that concentration is written in mol/L.

# count of solved cases: 6
CC(=O)N1CC[C@@]2(C1)Nc1c(cnc3[nH]cc(C(=O)c4ccc(Oc5ccccc5)cc4Cl)c13)NC2=O (single isomer, unassigned); 7.70
COCCOCC1(C)Nc2c(cnc3[nH]cc(C(=O)c4ccc(Oc5ccccc5)cc4Cl)c23)NC1=O (single isomer, unassigned) [Z153-1]; 7.59
N#C[C@H]1CC[C@@]2(C1)Nc1c(cnc3[nH]cc(C(=O)c4ccc(Oc5ccccc5)cc4Cl)c13)NC2=O (single isomer, unassigned) [Z26-4]; 7.55
CN1CCC2(C1)Nc1c(cnc3[nH]cc(C(=O)c4ccc(Oc5cccc(F)c5)cc4Cl)c13)NC2=O (stereo not shown); 7.75
COC[C@]1(C)Nc2c(cnc3[nH]cc(C(=O)c4ccc(Oc5ncccc5C)cc4Cl)c23)NC1=O; 7.74
COC[C@]1(C)Nc2c(cnc3[nH]cc(C(=O)c4ccc(Oc5cccc(F)c5)cc4Cl)c23)NC1=O; 7.97

Now examine the next entry.
*Q* Given the molecule COC[C@]1(C)Nc2c(cnc3[nH]cc(C(=O)c4ccc(Oc5c(F)cccc5OC)cc4Cl)c23)NC1=O , what is its reported pIC50?
*A* 8.18

----------
Observed IC50 values for BTK (Homo sapiens (Human)) are listed in what follows.
Hi! Could you send only the number? It should be in nM, unit omitted.

# count of solved cases: 3
COCC1(C)Nc2c(cnc3[nH]cc(C(=O)c4ccc(Oc5cc(C)ccn5)cc4Cl)c23)NC1=O (stereo not shown) [Z64]; 6.5
COC[C@]1(C)Nc2c(cnc3[nH]cc(C(=O)c4ccc(Oc5cccc(F)c5OC)cc4Cl)c23)NC1=O; 26.5
CC(=O)N1CC[C@@]2(C1)Nc1c(cnc3[nH]cc(C(=O)c4ccc(Oc5ccccc5)cc4Cl)c13)NC2=O (single isomer, unassigned); 46.1

Now examine the next entry.
*Q* Return IC50 measured with BTK (Homo sapiens (Human)) given this compound: CN1CCC2(C1)Nc1c(cnc3[nH]cc(C(=O)c4ccc(Oc5cc(C(F)(F)F)ccn5)cc4Cl)c13)NC2=O (stereo not shown)
Sequence (Q06187 whole entry): as the sequence (Q06187 whole entry) above
*A* 26.4

----------
- target-or-system: BTK (C481S) (Homo sapiens (Human), UniProt Q06187, C481S)
- assay-notes: BTK C481S enzyme experiment (ADP-Glo kinase assay)
- protocol-conditions: 10 nM BTK C481S, ATP 125 μM, Poly(Glu4, Tyr1), 90 minutes at 20° C.
metric-name: IC50

[2H]C([2H])([2H])OC[C@]1(C([2H])([2H])[2H])Nc2c(cnc3[nH]cc(C(=O)c4ccc(Oc5ccccc5)cc4Cl)c23)NC1=O; 12.5 nM

*Q* Given the compound O=C(c1ccc(Oc2ccccc2)cc1Cl)c1c[nH]c2ncc3c(c12)N[C@@]1(CC[C@H](O)C1)C(=O)N3 (single isomer, unassigned) [Z24-d] , what is its reported IC50?
*A* 3.1 nM

*Q* Given the compound COC[C@]1(C)Nc2c(cnc3[nH]cc(C(=O)c4ccc(F)c(F)c4Cl)c23)NC1=O , what is its reported IC50?
*A* 3.9 nM

*Q* Given the compound CC1(CO)Nc2c(cnc3[nH]cc(C(=O)c4ccc(Oc5ncccc5C(F)(F)F)cc4Cl)c23)NC1=O (centres unmarked) , what is its reported IC50?
*A* 120 nM
